Recorded values, source ChEMBL document CHEMBL1139013.

system: Splenocyte; experiment: Induction of IFN in C3H/HeJ mouse splenocytes at 100 nM; format: functional
// values below are reported Activity
# value in IU/ml; strip the unit string

smiles-str | Activity, IU/ml
CCCCNc1nc(N)c2nc(O)n(Cc3cccc(C)c3)c2n1 | 5.5

// recorded Activity for CCCCNc1nc(N)c2nc(O)n(CC3CCCCC3)c2n1 : 3.7

// recorded Activity for CCCCNc1nc(N)c2nc(O)n(Cc3cccc4ccccc34)c2n1 : 15.4

// recorded Activity for CCCCNc1nc(N)c2nc(O)n(Cc3ccc(O)cc3)c2n1 : 3.1

// recorded Activity for CCCCNc1nc(N)c2nc(O)n(Cc3ccc(C)nc3Cl)c2n1 : 3.4

// recorded Activity for COCCNc1nc(N)c2nc(O)n(Cc3ccccc3)c2n1 : 7.1

----------
// values below are reported Activity
system: Mus musculus; assay: Induction of IFN in BALB/c mice at 0.1 mg/kg, po; assay type: functional
# value in IU/ml; strip the unit string

// recorded Activity for CCCCNc1nc(N)c2nc(O)n(Cc3ccc(Cl)s3)c2n1 : 34

// recorded Activity for CCCCNc1nc(N)c2nc(O)n(Cc3ccc(OC)nc3)c2n1 : 375

// recorded Activity for CCCCNc1nc(N)c2nc(O)n(Cc3ccc(Cl)nc3Cl)c2n1 : 42

// recorded Activity for CCCCNc1nc(N)c2nc(O)n(Cc3ccc(F)cc3)c2n1 : 139

----------
system: Splenocyte; experiment: Induction of IFN in C3H/HeJ mouse splenocytes at 3 nM; format: functional
// values below are reported Activity

smiles-str | observable | obs-value
Nc1nc(NCc2ccccc2)nc2c1nc(O)n2Cc1ccccc1 | Activity | <0.5 IU/ml

So the reported Activity for CCCCNc1nc(N)c2nc(O)n(Cc3ccc(C)cc3)c2n1 , on Splenocyte, turned out to be <0.5 IU/ml

So the reported Activity for CCCCNc1nc(N)c2nc(O)n(Cc3cncc(C)c3)c2n1 , on Splenocyte, turned out to be 1.9 IU/ml

So the reported Activity for CCCCNc1nc(N)c2nc(O)n(Cc3ccncc3)c2n1 , on Splenocyte, turned out to be <0.5 IU/ml

So the reported Activity for CCCCNc1nc(N)c2nc(O)n(Cc3ccc(Cl)nc3)c2n1 , on Splenocyte, turned out to be 5.6 IU/ml

So the reported Activity for Nc1nc(NCc2ccncc2)nc2c1nc(O)n2Cc1ccccc1 , on Splenocyte, turned out to be <0.5 IU/ml

So the reported Activity for CCCCNc1nc(N)c2nc(O)n(Cc3ccc([N+](=O)[O-])cc3)c2n1 , on Splenocyte, turned out to be <0.5 IU/ml

So the reported Activity for CCCCNc1nc(N)c2nc(O)n(Cc3ccc(OC)cc3)c2n1 , on Splenocyte, turned out to be <0.5 IU/ml

So the reported Activity for CCCCNc1nc(N)c2nc(O)n(Cc3ccc(N(C)C)nc3)c2n1 , on Splenocyte, turned out to be 4.9 IU/ml

So the reported Activity for Nc1nc(NCc2ccncc2)nc2c1nc(O)n2Cc1ccc(F)cc1 , on Splenocyte, turned out to be <0.5 IU/ml

So the reported Activity for CCCCNc1nc(N)c2nc(O)n(Cc3ccc(Cl)c(Cl)c3)c2n1 , on Splenocyte, turned out to be <0.5 IU/ml
